target: BRD4 bromo domain 2 [BRD4(2)] (Homo sapiens, UniProt O60885); construct: N-terminally His6-tagged BRD4(2) (amino acids 357-445); assay: BRD4(2)/acetylated peptide H4 binding assay (TR-FRET); conditions: inhibition of interaction between His6-tagged BRD4(2) (amino acids 357-445) and acetylated histone H4 peptide
TEST_READOUT: IC50 (nM)
Answer with a number only, understood to be in nM.

{"columns": ["COMPOUND", "EXPERIMENTAL_RESULT"],
 "data": [
  ["CC(=O)N1CCC(NC(=O)c2ccc(Nc3ccc4c(n3)N(C3CCCCCC3)[C@H](C)C(=O)N4C)cc2)CC1", 100],
  ["Cc1cc(C(=O)N2CCN(C)CC2)ccc1Nc1ccc2c(n1)N(C1CCOCC1)[C@H](C)C(=O)N2C", 245],
  ["CC(C)N1CCN(C(=O)c2ccc(Nc3ccc4c(n3)N(C3CCCCC3)[C@H](C)C(=O)N4C)cc2)CC1", 108],
  ["C[C@@H]1C(=O)N(C)c2ccc(Nc3ccc(S(=O)(=O)N4CCN(C)CC4)cc3F)nc2N1C1CCOCC1", 87],
  ["COc1cc(C(=O)N[C@H]2CC[C@H](N3CCN(CC4CC4)CC3)CC2)ccc1Nc1ccc2c(n1)N(C1CCCCC1)[C@H](C)C(=O)N2C", 120],
  ["C[C@@H]1C(=O)N(C)c2ccc(Nc3ccc(C(=O)NC4CCC(O)CC4)cc3)nc2N1Cc1ccccc1 (some centres unmarked)", 99],
  ["C[C@@H]1C(=O)N(C)c2ccc(Nc3ccc(S(=O)(=O)N4CCN(C)CC4)cc3)nc2N1C1CCOCC1", 96],
  ["COc1cc(C(=O)NC2CN(C)C2)ccc1Nc1ccc2c(n1)N(C1CCOCC1)[C@H](C)C(=O)N2C", 128]
]}

// IC50 value for `C[C@@H]1C(=O)N(C)c2ccc(Nc3ccc(C(=O)NC4CCN(C)CC4)cc3)nc2N1C1CCCC1` : 83

// IC50 value for `COc1cc(C(=O)NC2CCC(=O)CC2)ccc1Nc1ccc2c(n1)N(C1CCOCC1)[C@H](C)C(=O)N2C` : 79

// IC50 value for `C[C@@H]1C(=O)N(C)c2ccc(Nc3ccc(C(=O)N4CCN(C(=O)OC(C)(C)C)CC4)cc3)nc2N1Cc1ccccc1` : 273

// IC50 value for `C[C@@H]1C(=O)N(C)c2ccc(Nc3ccc(C(=O)N4CC5(COC5)C4)cc3)nc2N1C1CCCCCC1` : 90

// IC50 value for `C[C@@H]1C(=O)N(C)c2ccc(Nc3ccc(S(=O)(=O)NC4CCN(C)CC4)cc3)nc2N1C1CCOCC1` : 53

// IC50 value for `C[C@@H]1C(=O)N(C)c2ccc(Nc3ccc(S(=O)(=O)NCCN4CCN(C)CC4)cc3)nc2N1C1CCOCC1` : 65

====

biological target: BRD4 bromo domain 1 [BRD4(1)] (Homo sapiens, UniProt O60885); construct: N-terminally His6-tagged BRD4(1) (amino acids 67-152); test: BRD4(1)/acetylated peptide H4 binding assay (TR-FRET); details: inhibition of interaction between His6-tagged BRD4(1) (amino acids 67-152) and acetylated histone H4 peptide
Below, each entry is listed with its recorded pIC50.
Convention used: pIC50 is expressed as -log10 of the molar concentration.

// solved cases for pIC50 follow
{"columns": ["COMPOUND", "SUBJECT_OF_TEST", "pIC50"],
 "data": [
  ["COc1cc(C(=O)N2CC3(COC3)C2)ccc1Nc1ccc2c(n1)N(C1CCCCCC1)[C@H](C)C(=O)N2C", "BRD4 bromo domain 1 [BRD4(1)] (Homo sapiens, UniProt O60885)", 6.42],
  ["C[C@@H]1C(=O)N(C)c2ccc(Nc3ccc(C(=O)N[C@H]4CC[C@H](N5CCN(CC6CC6)CC5)CC4)cc3)nc2N1C1CCOCC1", "BRD4 bromo domain 1 [BRD4(1)] (Homo sapiens, UniProt O60885)", 6.86],
  ["C[C@@H]1C(=O)N(C)c2ccc(Nc3ccc(C(=O)NCc4ccccn4)cc3)nc2N1C1CCOCC1", "BRD4 bromo domain 1 [BRD4(1)] (Homo sapiens, UniProt O60885)", 6.92]
]}

// pIC50 value for `C[C@@H]1C(=O)N(C)c2ccc(Nc3ccc(C(=O)N4CC5(CCS5(=O)=O)C4)cc3)nc2N1C1CCCCCC1` : 6.48

// pIC50 value for CC1C(=O)N(C)c2ccc(Nc3ccc(S(=O)(=O)NC4CCN(C)CC4)cc3)nc2N1c1ccccc1 (stereo not shown) : 6.70

// pIC50 value for `C[C@@H]1C(=O)N(C)c2ccc(Nc3ccc(C(=O)N4CC5(COC5)C4)cc3)nc2N1C1CCCCCC1` : 6.50

// pIC50 value for `C[C@@H]1C(=O)N(C)c2ccc(Nc3ccc(S(=O)(=O)NC4CCN(C)CC4)cc3)nc2N1c1ccccc1` : 7.20

// pIC50 value for `COc1cc(C(=O)NC2CCN(C(C)=O)CC2)ccc1Nc1ccc2c(n1)N(C1CCCCC1)[C@H](C)C(=O)N2C` : 6.48

// pIC50 value for `C[C@@H]1C(=O)N(C)c2ccc(Nc3ccc(C(=O)NC4CCN(C)CC4)cc3)nc2N1C1CCCC1` : 7.20

// pIC50 value for `COc1cc(C(=O)NC2CCN(C(C)=O)CC2)ccc1Nc1ccc2c(n1)N(Cc1ccccc1)[C@H](C)C(=O)N2C` : 7.26

// pIC50 value for `COc1cc(C(=O)NC2CN(C)C2)ccc1Nc1ccc2c(n1)N(C1CCCCCC1)[C@H](C)C(=O)N2C` : 6.67

// pIC50 value for `COc1cc(C(=O)N[C@H]2CC[C@H](N3CCN(CC4CC4)CC3)CC2)ccc1Nc1ccc2c(n1)N(Cc1ccccc1)[C@H](C)C(=O)N2C` : 6.59

// pIC50 value for `C[C@@H]1C(=O)N(C)c2ccc(Nc3ccc(C(=O)N4CC5(CCS5(=O)=O)C4)cc3)nc2N1C1CCCCC1` : 6.62

====

test system: MOLM-13 cell line; assay: MOLM-13 cell proliferation assay (alamarBlue); format: cell-based; details: Homo sapiens, inhibition of proliferation of MOLM-13 cells (acute myeloid leukaemia), 96 hours incubation
TEST_READOUT: pIC50
Convention used: pIC50 is expressed as -log10 of the molar concentration.

{"columns": ["COMPOUND", "pIC50"],
 "data": [
  ["CC(C)N1c2nc(Nc3ccc(S(=O)(=O)N4CCN(C)CC4)cc3)ccc2N(C)C(=O)[C@H]1C", 6.50],
  ["COc1cc(C(=O)N[C@H]2CC[C@H](N3CCN(CC4CC4)CC3)CC2)ccc1Nc1ccc2c(n1)N(C1CCCCC1)[C@H](C)C(=O)N2C", 6.63],
  ["COc1cc(C(=O)NCCc2cccnc2)ccc1Nc1ccc2c(n1)N(C1CCOCC1)[C@H](C)C(=O)N2C", 6.39],
  ["COc1cc(C(=O)NCCN2CCN(C)CC2)ccc1Nc1ccc2c(n1)N(Cc1ccccc1)[C@H](C)C(=O)N2C", 6.88],
  ["CC(C)N1c2nc(Nc3ccc(S(=O)(=O)N4CCOCC4)cc3)ccc2N(C)C(=O)[C@H]1C", 6.65]
]}

// pIC50 value for `C[C@@H]1C(=O)N(C)c2ccc(Nc3ccc(C(=O)NC4CCN(C)CC4)cc3)nc2N1C1CCCC1` : 6.35

// pIC50 value for `COc1cc(C(=O)NC2CCN(C(C)=O)CC2)ccc1Nc1ccc2c(n1)N(Cc1ccccc1)[C@H](C)C(=O)N2C` : 6.62

// pIC50 value for `Cc1cc(C(=O)N[C@H]2CC[C@H](N3CCN(CC4CC4)CC3)CC2)ccc1Nc1ccc2c(n1)N(C1CCOCC1)[C@H](C)C(=O)N2C` : 6.07

// pIC50 value for `CC(C)N1c2nc(Nc3ccc(S(=O)(=O)N(C)C)cc3)ccc2N(C)C(=O)[C@H]1C` : 6.47

// pIC50 value for `COc1cc(C(=O)N2CC3(CCS3(=O)=O)C2)ccc1Nc1ccc2c(n1)N(C1CCCC1)[C@H](C)C(=O)N2C` : 6.21

====

biological target: BRD4 bromo domain 2 [BRD4(2)] (Homo sapiens); construct: N-terminally His6-tagged BRD4(2) (amino acids 357-445); assay: BRD4(2)/acetylated peptide H4 binding assay (TR-FRET); details: inhibition of interaction between His6-tagged BRD4(2) (amino acids 357-445) and acetylated histone H4 peptide
Label key: 1 (yes) means IC50 under 80 nM; 0 (no) means IC50 of 80 nM or more.

Sample answers from the record:
{"columns": ["MOLECULE", "CLASS"],
 "data": [
  ["COc1cc(C(=O)NC2CCN(C)CC2)ccc1Nc1ccc2c(n1)N(C1CCCC1)[C@H](C)C(=O)N2C", "0 (no)"],
  ["COc1cc(C(=O)N2CC3(COC3)C2)ccc1Nc1ccc2c(n1)N(C1CCCCC1)[C@H](C)C(=O)N2C", "0 (no)"],
  ["C[C@@H]1C(=O)N(C)c2ccc(Nc3ccc(C(=O)N[C@H]4CC[C@H](N5CCN(CC6CC6)CC5)CC4)cc3)nc2N1C1CCOCC1", "0 (no)"],
  ["C[C@@H]1C(=O)N(C)c2ccc(Nc3ccc(C(=O)NC4CCC(N5CCC(F)(F)CC5)CC4)cc3)nc2N1C1CCOCC1 (stereo partly shown)", "0 (no)"],
  ["COc1cc(C(=O)N2CC3(COC3)C2)ccc1Nc1ccc2c(n1)N(Cc1ccccc1)[C@H](C)C(=O)N2C", "1 (yes)"]
]}

Turning to the following molecule.
Exam item: Is it true that IC50 reported for `COc1cc(S(=O)(=O)NC2CCN(C)CC2)ccc1Nc1ccc2c(n1)N(C1CCOCC1)[C@H](C)C(=O)N2C` is less than 80 nM?
Marked response: 1 (yes)
